The measurements presented in this section are drawn from PubChem BioAssay.

Experiment: changes in parasitized red cell lysis, either direction – P. falciparum Indochina, OD700, 3 h, PSAC antagonist project, primary screen (AID 1156)
Settings: P. falciparum-infected erythrocytes, osmotic lysis, higher = more signal, called active from +8 up or from −8 down

[
  {
    "compound": "COc1ccc(C#Cc2ccc3c(c2)[C@]2(C(=O)N3)[C@H](C(=O)N3CCc4cc(OC)c(OC)cc4C3)[C@H]3C(=O)O[C@H](c4ccccc4)[C@H](c4ccccc4)N3[C@@H]2c2ccc(OCCO)cc2)cc1",
    "z-score": 0.279
  },
  {
    "compound": "COCCOC(=O)N1C(=O)[C@@]2(c3cc(C#CCCO)ccc31)[C@H](c1ccc(O)cc1)N1[C@H](c3ccccc3)[C@H](c3ccccc3)OC(=O)[C@H]1[C@@H]2C(=O)N1CCCCCCC1",
    "z-score": -0.599
  },
  {
    "compound": "COCCOC(=O)N1C(=O)[C@@]2(c3cc(C#CC4=CCCCC4)ccc31)[C@H](C(=O)N1CCN(c3ncccn3)CC1)[C@H]1C(=O)O[C@H](c3ccccc3)[C@H](c3ccccc3)N1[C@@H]2c1ccc(OCCO)cc1",
    "z-score": 0.251
  },
  {
    "compound": "C=CC[C@]1(C(=O)NCCN2CCOCC2)N=C(c2ccc(OCCCO)cc2)O[C@H]1c1ccccc1N=[N+]=[N-]",
    "z-score": 2.5
  },
  {
    "compound": "O=C1OCCC=C[C@H]2OC34C=CCN(CCN5CCOCC5)C(=O)[C@H]3N(CCO)C(=O)[C@@H]4C12 (some centres not stated)",
    "z-score": 0.918
  },
  {
    "compound": "O=c1cccc(-c2ccccc2)o1",
    "z-score": -0.891
  },
  {
    "compound": "CC(C)C(CO)N1C(=O)[C@@H]2[C@H]3C(=O)OCC=C[C@H]3OC23C=CCN(c2ccc4ccccc4c2)C(=O)[C@@H]13 (some centres not stated)",
    "z-score": 0.686
  }
]

---

Molecular target: Follistatin (Homo sapiens)
Assay: FST protein binding to printed compounds – biochemical, small-molecule microarray, 635/667 nm fluorescence, primary screen (AID 1132)
Details: 635 nm fluorescence, higher = more signal
assay-readout: composite z-score

[
  {
    "compound": "Cc1ccc(S[C@]2(C(=O)NCCN3CCOCC3)CC(=O)N(C3CCCCC3)[C@@H]2c2ccc(CO)cc2)cc1",
    "assay-readout": "composite z-score",
    "experimental-value": 0.102
  },
  {
    "compound": "O=C1OCC=C[C@H]2OC34C=CCN(c5ccc6ccccc6c5)C(=O)[C@H]3N(CCO)C(=O)[C@@H]4[C@@H]12 (some centres not stated)",
    "assay-readout": "composite z-score",
    "experimental-value": -1.05
  },
  {
    "compound": "COC(=O)[C@@]1(Cc2ccc(OC)cc2)[C@H]2c3cc(C(=O)N(C)C)n(CCSCCO)c3C[C@H]2CN1C(=O)c1ccccc1",
    "assay-readout": "composite z-score",
    "experimental-value": 0.108
  },
  {
    "compound": "O=C1OCCC=C[C@H]2OC34C=CCN(c5ccc6ccccc6c5)C(=O)[C@H]3N(CCCCCCO)C(=O)[C@@H]4C12 (some centres not stated)",
    "assay-readout": "composite z-score",
    "experimental-value": -0.761
  },
  {
    "compound": "COc1ccc([Si](C)(C)[C@@H]2[C@@H](CCO)O[C@]3(C(=O)N(Cc4cccc(N(C=O)c5ccccc5)c4)c4ccccc43)[C@H]2C)cc1",
    "assay-readout": "composite z-score",
    "experimental-value": 1.18
  },
  {
    "compound": "CC(C)CNC(=O)[C@@]1(C)c2ccccc2C(=O)N(C(C)C)[C@H]1c1ccc(CO)cc1",
    "assay-readout": "composite z-score",
    "experimental-value": -0.0856
  },
  {
    "compound": "CC(=O)NCCCC[C@@H]1NC(=O)[C@@H]2C[C@H](C(=O)NCc3ccc(F)cc3)[C@H](c3ccc(O)cc3)N2C1=O",
    "assay-readout": "composite z-score",
    "experimental-value": 1.33
  }
]
